Tested on: HL-60
Test: Antiproliferative activity against human HL60 cells at 1 uM after 72 hrs by fluorescence method
Format: functional
Details: HL-60, 72 h, read-out: GI
Entries annotated with measured inhibition of growth at 1 µM

molecule	inhibition of growth at 1 µM [%]
CC[C@@H]1NC(=O)c2[nH]c3ccccc3c2-c2ccccc21	90
CC[C@H]1c2ccccc2-c2c([nH]c3ccccc23)C(=O)N1C	85
O=C1NC2CCc3cccc(c32)-c2c1[nH]c1ccccc21 (centres undefined)	83
O=C1c2[nH]c3ccccc3c2-c2ccccc2C2CCCN12 (centres undefined)	49

###

Test system: KB
Experiment: Antiproliferative activity against human KB cells after 72 hrs by fluorescence method
Type: functional, cell-based
experimental.readout: IC50 (nM)

compound	assay.target	numeric.readout
O=C1NC2CCc3cccc(c32)-c2c1[nH]c1ccccc21 (centres undefined)	KB	900
CC[C@H]1c2ccccc2-c2c([nH]c3ccccc23)C(=O)N1C	KB	2
CC[C@@H]1NC(=O)c2[nH]c3ccccc3c2-c2ccccc21	KB	35
O=C1c2[nH]c3ccccc3c2-c2ccccc2C2CCCN12 (centres undefined)	KB	5000
